Source: PubChem BioAssay (NCI)

test system: MALME-3M melanoma; assay: NCI tumour cell line growth inhibition, 48 h
VALUE KIND: TGI (µM)
Your answer is read as µM, so omit the unit and give the number.

TGI lookup needed for COC(=O)C1=C(C(=O)ON)C2C=CC1(C(Cc1ccccc1)Nc1ccccc1)O2 (stereo not given) , thanks. 3.33

Reported TGI, compound C=CC[N+]12CN3CN(CN(C3)C1)C2 : ____ 45.2

I'd like to know its TGI. The compound in question is C/C(=N/Nc1nc2ccccc2n1C)c1ccccn1 16.7

What measured TGI goes with Cc1cc(S(N)(=O)=O)c(S/C(CC(C)C)=N\Nc2ccc([N+](=O)[O-])cc2)cc1Cl ? 25

----------
system: HT29 colon; test: NCI tumour cell line growth inhibition, 48 h
I'd appreciate it if you could supply TGI values for the items below.

Please report the recorded TGI for COc1c(C)c2c(c(=O)c3c(C)cccc3n2C)c2c1c(=O)c1c(C)cccc1n2C . > 10 µM

Form field: reported TGI of O=C(Nc1cc(Cl)cc(Cl)c1)c1ccc(NC2=C(Cl)C(=O)N(Cc3ccc(Cl)cc3Cl)C2=O)cc1 > 100 µM

What value of measured TGI is listed for CC(C)=NN/C(=N\S(=O)(=O)c1ccc(C)cc1)Nc1ccc(Cl)cc1 ? > 100 µM

If you can, please state the reported TGI value of CC(C)(C)c1cc(-c2cc(C(C)(C)C)n(-c3ccccc3)n2)nn1-c1ccccc1 . > 100 µM

Entry CN(C)c1ccc([O][Bi]([Cl])[Cl])cc1 : reported TGI = ? > 100 µM

----------
system: EKVX NSCLC; assay: NCI tumour cell line growth inhibition, 48 h
VALUE KIND: TGI

Which measured TGI value corresponds to CCCc1cc2c(=O)c(C(=O)OC)c[nH]c2cc1N(CC)CC ? 42.7 µM

Give the measured TGI of CCOC(=O)c1[nH]c(Br)c(-c2ccc(Br)cc2)c1Br . 17.3 µM

Any idea what TGI was measured for c1ccc2[nH]c(-c3ccc(NN=Nc4ccncc4)cc3)nc2c1 ? 54.1 µM

// query TGI value for entry N#CC(C(=O)CCC(=O)C(C#N)c1ccccc1)c1ccccc1 (stereo not drawn) > 100 µM

Looking for the measured TGI of CC(C)=NN/C(=N\S(=O)(=O)c1ccc(C)cc1)Nc1ccc(Cl)cc1 , can you help? > 100 µM

Name the recorded TGI for Cc1ccc(C)n1-n1c(Cc2ccccc2)n[nH]c1=O . > 100 µM

Give its TGI value. Item: CCOP(=O)(CCCC(O)CNc1cc(Cl)nc(N)n1)OCC (stereo not drawn) > 100 µM

Recorded TGI of O=C1CC(O)c2c(Br)sc(Br)c21 (stereo not drawn) , please. 27.7 µM

TGI for COc1ccc(/C=C/C(=O)c2ccc(SC)cc2)cc1OC ? 35.9 µM

Name the reported TGI value associated with the compound COC(=O)c1ccccc1C1CN=NC12Cc1ccc(C)c(C)c1C2=O (stereo not drawn) > 100 µM

I'd like to know its TGI. The compound in question is COC(=O)/C([Se]c1c(C)cc(C)cc1C)=C(\[Se]c1c(C)cc(C)cc1C)C(=O)OC > 100 µM

What does the data say about its TGI? Entry: Cc1ccc(/C=C2/SC(Nc3nc(-c4csc(NC5=NC(=O)/C(=C\c6ccc(C)cc6)S5)n4)cs3)=NC2=O)cc1 > 50 µM

Suppose we examine the compound COc1cc(C2c3cc(O)c(OC)cc3C3OCC2C3CO)ccc1O (stereo not drawn) ; what TGI value has been reported? > 100 µM

I have this compound here, O=c1nc2n(-c3ccc(Cl)cc3)c3ccc([N+](=O)[O-])cc3cc-2c(=O)[nH]1 , and I need its recorded TGI. 82.5 µM

Form field: reported TGI of CCc1c(C#N)c(S[C@@H](C(N)=O)c2ccccc2)nc(N(C)C)c1C#N > 100 µM

What value of TGI has been recorded for this entry: COc1ccc(/C=C/C(=O)/C=C/c2ccc(OC)cc2)cc1 > 100 µM

Item COC(=O)c1ccccc1CC1Cc2ccc3c(c2C1)CCC3 (stereo not drawn) has what recorded TGI? 48.8 µM

Name the reported TGI value associated with the compound C#CCOc1c(C(=O)OCC)c(=O)n(C)c2ccccc12 > 100 µM
